molecular target: human wild-type CFTR (Homo sapiens, UniProt P13569); assay: Cell-based plate reader (YFP iodide influx) assay of CFTR function; set-up: expressed in transfected cells; host or cells: Fischer rat thyroid (FRT) cells stably co-expressing YFP-H148Q; conditions: N,N-diethyl-N′-aryl-1,3,5-triazine diamine analogs; read-out: EC50 for CFTR activation
Sequence (P13569 whole entry): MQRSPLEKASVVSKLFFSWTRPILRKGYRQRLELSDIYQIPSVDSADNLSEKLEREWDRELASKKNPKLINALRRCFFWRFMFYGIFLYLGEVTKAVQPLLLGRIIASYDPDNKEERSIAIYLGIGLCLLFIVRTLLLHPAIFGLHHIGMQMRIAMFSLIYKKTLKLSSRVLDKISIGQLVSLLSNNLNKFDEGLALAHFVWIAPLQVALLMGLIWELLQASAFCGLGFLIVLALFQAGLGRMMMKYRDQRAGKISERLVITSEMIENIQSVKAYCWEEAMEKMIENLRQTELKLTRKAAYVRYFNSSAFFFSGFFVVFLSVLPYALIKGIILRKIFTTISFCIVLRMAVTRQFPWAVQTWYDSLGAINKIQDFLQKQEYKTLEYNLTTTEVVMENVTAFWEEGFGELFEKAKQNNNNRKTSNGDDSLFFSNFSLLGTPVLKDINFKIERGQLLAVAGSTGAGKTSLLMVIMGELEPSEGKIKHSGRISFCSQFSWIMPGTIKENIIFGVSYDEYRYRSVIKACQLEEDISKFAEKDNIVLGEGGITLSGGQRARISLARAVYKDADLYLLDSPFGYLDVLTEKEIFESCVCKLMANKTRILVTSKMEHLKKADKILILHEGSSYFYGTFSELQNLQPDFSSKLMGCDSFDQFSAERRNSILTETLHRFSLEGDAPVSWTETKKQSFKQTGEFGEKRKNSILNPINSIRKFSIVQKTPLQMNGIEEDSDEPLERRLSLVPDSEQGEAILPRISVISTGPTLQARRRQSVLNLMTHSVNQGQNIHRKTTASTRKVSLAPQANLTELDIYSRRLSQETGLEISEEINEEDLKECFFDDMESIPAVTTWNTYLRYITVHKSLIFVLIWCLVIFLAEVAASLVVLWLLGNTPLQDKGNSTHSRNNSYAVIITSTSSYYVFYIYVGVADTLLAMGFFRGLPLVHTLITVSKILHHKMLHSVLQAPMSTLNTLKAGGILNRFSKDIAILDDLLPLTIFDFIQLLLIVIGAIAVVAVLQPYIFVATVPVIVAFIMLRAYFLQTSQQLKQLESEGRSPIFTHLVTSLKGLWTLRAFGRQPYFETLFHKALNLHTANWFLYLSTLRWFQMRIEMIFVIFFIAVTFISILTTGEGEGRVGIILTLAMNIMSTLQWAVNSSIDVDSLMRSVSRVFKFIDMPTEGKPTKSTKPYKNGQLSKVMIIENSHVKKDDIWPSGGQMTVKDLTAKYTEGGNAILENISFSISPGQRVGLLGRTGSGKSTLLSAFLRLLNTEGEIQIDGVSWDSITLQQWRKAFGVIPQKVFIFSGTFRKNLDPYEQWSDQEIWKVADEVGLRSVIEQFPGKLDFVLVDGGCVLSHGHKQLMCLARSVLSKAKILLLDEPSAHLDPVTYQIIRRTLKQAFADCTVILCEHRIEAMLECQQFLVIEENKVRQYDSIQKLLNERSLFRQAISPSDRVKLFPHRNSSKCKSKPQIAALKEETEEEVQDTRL
PROPERTY_MEASURED: pEC50
One number for each entry, as −log10 of the molar value.

Study these solved cases before continuing.
CCN(CC)c1nc(Nc2cccc([N+](=O)[O-])c2)nc(OCC(F)(F)C(F)F)n1; 5.92
CCN(CC)c1nc(Nc2ccc(F)cc2)nc(OC(C(F)(F)F)C(F)(F)F)n1; 6.15

Please find the next compound below.
The reported pEC50 of the compound "CCN(CC)c1nc(Nc2cccc(F)c2)nc(OCC(F)(F)C(F)F)n1" was 5.80

---

I'd be grateful if you could share measured pEC50 for these entries.
molecular target: human wild-type CFTR (Homo sapiens); assay: Short-circuit current in FRT cells expressing wild-type human CFTR; format: cell-based; design: expressed in transfected cells; settings: FRT cells expressing human wild-type CFTR; read-out: EC50 for CFTR activation (short-circuit current)
Numbers only, as −log10 of the molar value.

CCN(CC)c1nc(Nc2ccc3ncsc3c2)nc(OC(C(F)(F)F)C(F)(F)F)n1 [6k]; 7.52

The reported pEC50 of the compound CNc1nc(Nc2ccccc2)nc(OCC(F)(F)C(F)F)n1 [compound 12] was 7.51

---

biological target: human wild-type CFTR (Homo sapiens); test: Cell-based plate reader (YFP iodide influx) assay of CFTR function; set-up: expressed in transfected cells; host or cells: Fischer rat thyroid (FRT) cells stably co-expressing YFP-H148Q; conditions: commercial analogs; FRT cells with YFP and wildtype CFTR, 125 nM forskolin
Classify: met when % Activation is strictly less than 20%; not met when % Activation is not.

Worked examples follow.
CCOc1nc(NCCO)nc(Nc2ccc(-c3nc4ccccc4o3)cc2)n1; not met
CCOc1nc(Nc2ccc(I)cc2)nc(NC2CCCCC2)n1; met
O=[N+]([O-])c1ccccc1Nc1nc(OC(C(F)(F)F)C(F)(F)F)nc(OC(C(F)(F)F)C(F)(F)F)n1; met
CC(C)(C)Nc1nc(Nc2ccc(OC(F)(F)Cl)cc2)nc(OCC(F)(F)F)n1; met

Attention now shifts to the item below.
Query string: Dear colleague, could you confirm whether % Activation of "CCOc1nc(NCCO)nc(Nc2ccc(I)cc2)n1" falls below 20%? Thanks.
Result string: met
